This collection of values is drawn from the supplement of paper PMC12338614.

In this section we review reported STK11 functional score values for a set of variants.
B1: library; numbered along this chain (parent)
chain: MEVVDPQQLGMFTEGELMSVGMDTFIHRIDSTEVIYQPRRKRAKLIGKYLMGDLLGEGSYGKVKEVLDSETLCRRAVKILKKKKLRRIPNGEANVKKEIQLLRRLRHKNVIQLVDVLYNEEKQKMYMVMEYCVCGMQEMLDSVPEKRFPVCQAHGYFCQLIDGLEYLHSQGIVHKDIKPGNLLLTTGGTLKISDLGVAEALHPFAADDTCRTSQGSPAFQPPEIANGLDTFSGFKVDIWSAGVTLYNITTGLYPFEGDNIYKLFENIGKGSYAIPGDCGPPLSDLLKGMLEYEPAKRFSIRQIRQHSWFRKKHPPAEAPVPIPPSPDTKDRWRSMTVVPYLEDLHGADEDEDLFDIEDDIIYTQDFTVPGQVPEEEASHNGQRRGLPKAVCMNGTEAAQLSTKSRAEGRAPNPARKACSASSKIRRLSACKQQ

- Variants of: B1
- Method description: STK11 functional score (HeLa growth suppression), rescaled enrichment; synonymous median = 1, nonsense median = 0 (normalised score)
- Run parameters: with HeLa; variant type: missense
Value type: STK11 functional score

Mutations | Recorded measurement
E291W | 1.35
R409F | 0.845
A295N | 1.24
E121N | 1.57
R39N | 0.65
T185R | 0.992
P323V | 1.01
K262N | 1.33
K44C | 1.12
K178I | 0.388
A241D | 0.383
L105W | 0.397
N90A | 1.14
L285Q | -0.0107
D207S | 0.778
T189V | 1.3
F234I | 1.67
F148L | 0.829
I361K | 0.624
T328N | 0.554
H379F | 1.1
Y272V | 0.735
